Target: T1, His-tagged ECD of cynomolgus monkey 4-1BB (cynomolgus monkey, UniProt Q07011 24-186 (human entry))
T1 construct: also called cynomolgus 4-1BB; cyno 4-1BB; not shown: His tag
T1 chain: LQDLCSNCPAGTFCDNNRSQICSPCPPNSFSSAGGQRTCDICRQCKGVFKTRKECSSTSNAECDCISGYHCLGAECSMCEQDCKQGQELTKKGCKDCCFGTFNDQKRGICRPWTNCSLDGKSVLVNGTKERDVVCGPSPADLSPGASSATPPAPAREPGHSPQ
Test: SPR (Biacore), captured antibody, His-tagged ECD analyte
Quantity Measured: pKd
Bear in mind: pKd is minus log10 of a mol/L concentration; give just that figure.

Look up pKd for this binder: hu107-3-hIgG4 (antibody, V domains shown, Human IgG4 constant region with the S228P mutation; also called hu107.1x.1y) VH: EVQLVQSGAEVKKPGSSVKVSCKASDYTFNDYWVSWVRQAPGQGLEWIGEIYPNSGATNFNGKFRGRATLTVDNSASTAYMELSSLRSEDTAVYYCTREYTRDWFAYWGQGTLVTVSS VL: DVQLTQSPSSLSASVGDRVTITCRSSQSLLDSDGNTYLYWFQQKPGKAPKRLIYLVSNLGSGVPSRFSGSGSGTDFTLTISSLQPEDFATYYCMQPTHAPYTFGQGTKVEIK 9.54
